System: HeLa
protocol_summary: MTT cytotoxicity assay, HeLa
Type: cell-based, human
condition_parameters: Homo sapiens, HeLa; 24 h incubation
readout_name: pIC50
Would you please state pIC50, meaning minus log10 of the concentration in mol/L, as a bare number?

Lookup: Given the compound Fc1ccc2nc(COc3ccccc3-c3nc4ccccc4s3)c(COc3ccccc3-c3nc4ccccc4s3)nc2c1 , what is its reported pIC50?
Found: 3.93

Lookup: Given the compound Fc1cc2nc(COc3ccccc3-c3nc4ccccc4s3)c(COc3ccccc3-c3nc4ccccc4s3)nc2cc1Cl , what is its reported pIC50?
Found: 4.35

Lookup: Given the compound Clc1cc2nc(COc3ccccc3-c3nc4ccccc4s3)c(COc3ccccc3-c3nc4ccccc4s3)nc2cc1Cl , what is its reported pIC50?
Found: 4.41

Lookup: Given the compound Clc1ccc2nc(COc3ccccc3-c3nc4ccccc4s3)c(COc3ccccc3-c3nc4ccccc4s3)nc2c1 , what is its reported pIC50?
Found: 4.16

Lookup: Given the compound COc1ccc2nc(COc3ccccc3-c3nc4ccccc4s3)c(COc3ccccc3-c3nc4ccccc4s3)nc2c1 , what is its reported pIC50?
Found: 4.43

Lookup: Given the compound c1ccc(-c2nc3ccccc3s2)c(OCc2nc3ccccc3nc2COc2ccccc2-c2nc3ccccc3s2)c1 , what is its reported pIC50?
Found: 4.14

* * *

protocol_summary: Metabolic stability in dog liver microsomes
Assay type: in vitro ADME
condition_parameters: dog, liver microsomes, DLM set 2
readout_name: half-life at 0.5 μM (h)
I only need the number, in h, no unit after it.

Lookup: Given the compound COc1ccc2nc(COc3ccccc3-c3nc4ccccc4s3)c(COc3ccccc3-c3nc4ccccc4s3)nc2c1 , what is its reported half-life at 0.5 μM?
Found: 1.91

* * *

Could you please report measured Φ, emission quantum yield for the items listed next?
protocol_summary: Fluorescence quantum yield in water
Format: physicochemical
condition_parameters: 298 K, quinine sulphate as standard
Kindly provide the number alone.

Lookup: Given the molecule Fc1ccc2nc(COc3ccccc3-c3nc4ccccc4s3)c(COc3ccccc3-c3nc4ccccc4s3)nc2c1 , what is its reported Φ, emission quantum yield?
Found: 0.04

Lookup: Given the molecule Fc1cc2nc(COc3ccccc3-c3nc4ccccc4s3)c(COc3ccccc3-c3nc4ccccc4s3)nc2cc1Cl , what is its reported Φ, emission quantum yield?
Found: 0.014

Lookup: Given the molecule Brc1ccc2nc(COc3ccccc3-c3nc4ccccc4s3)c(COc3ccccc3-c3nc4ccccc4s3)nc2c1 , what is its reported Φ, emission quantum yield?
Found: 0.017

Lookup: Given the molecule Clc1ccc2nc(COc3ccccc3-c3nc4ccccc4s3)c(COc3ccccc3-c3nc4ccccc4s3)nc2c1 , what is its reported Φ, emission quantum yield?
Found: 0.017

Lookup: Given the molecule c1ccc(-c2nc3ccccc3s2)c(OCc2nc3ccccc3nc2COc2ccccc2-c2nc3ccccc3s2)c1 , what is its reported Φ, emission quantum yield?
Found: 0.006

Lookup: Given the molecule COc1ccc2nc(COc3ccccc3-c3nc4ccccc4s3)c(COc3ccccc3-c3nc4ccccc4s3)nc2c1 , what is its reported Φ, emission quantum yield?
Found: 0.013

Lookup: Given the molecule Clc1cc2nc(COc3ccccc3-c3nc4ccccc4s3)c(COc3ccccc3-c3nc4ccccc4s3)nc2cc1Cl , what is its reported Φ, emission quantum yield?
Found: 0.04

* * *

protocol_summary: Caco-2 permeability study
Format: in vitro ADME
condition_parameters: human, Caco-2, 10 μM, B to A, N = 3
readout_name: recovery at 10 μM
Show the value, then the unit it is measured in.

Lookup: Given the compound COc1ccc2nc(COc3ccccc3-c3nc4ccccc4s3)c(COc3ccccc3-c3nc4ccccc4s3)nc2c1 , what is its reported recovery at 10 μM?
Found: 96%

* * *

protocol_summary: Caco-2 permeability study
Format: in vitro ADME
condition_parameters: human, Caco-2, 10 μM, A to B, N = 3
readout_name: recovery at 10 μM (%)
I only need the number, in %, no unit after it.

Lookup: Given the molecule COc1ccc2nc(COc3ccccc3-c3nc4ccccc4s3)c(COc3ccccc3-c3nc4ccccc4s3)nc2c1 , what is its reported recovery at 10 μM?
Found: 101

* * *

protocol_summary: Buffer stability (LC-MS/MS)
Assay type: physicochemical
condition_parameters: pH 7.4 buffer, 25.00 μM; read-out: % Remaining in 120 min
readout_name: remaining at 2 h, 25 μM (%)
I only need the number, in %, no unit after it.

Lookup: Given the compound COc1ccc2nc(COc3ccccc3-c3nc4ccccc4s3)c(COc3ccccc3-c3nc4ccccc4s3)nc2c1 [Compound 7g] , what is its reported remaining at 2 h, 25 μM?
Found: 110

* * *

protocol_summary: Metabolic stability in human liver microsomes
Type: in vitro ADME
condition_parameters: human, liver microsomes, HLM set 2
readout_name: half-life at 0.5 μM
Show the value, then the unit it is measured in.

Lookup: Given the compound COc1ccc2nc(COc3ccccc3-c3nc4ccccc4s3)c(COc3ccccc3-c3nc4ccccc4s3)nc2c1 , what is its reported half-life at 0.5 μM?
Found: 55.9 min

* * *

protocol_summary: Metabolic stability in dog liver microsomes
Assay type: in vitro ADME
condition_parameters: dog, liver microsomes, DLM set 1
Experimental: The in vitro metabolic rate of 7g was determined in liver microsomes and the intrinsic clearance (CLintr) was estimated. The study was conducted at 0.5 μM substrate concentration and microsomal protein concentration of 0.5 mg ml^−1. Metabolic stability study in the presence of microsomes and cofactor NADPH was performed at 37 °C, 60 rpm for 30 min time duration. […] Intrinsic clearance as given in Table 6, was calculated using eqn (8). ^†
readout_name: half-life at 0.5 μM (h)
I only need the number, in h, no unit after it.

Lookup: Given the compound COc1ccc2nc(COc3ccccc3-c3nc4ccccc4s3)c(COc3ccccc3-c3nc4ccccc4s3)nc2c1 [Compound 7g] , what is its reported half-life at 0.5 μM?
Found: 1.28

* * *

protocol_summary: Buffer stability (LC-MS/MS)
Format: physicochemical
condition_parameters: pH 7.4 buffer, 3.13 μM; read-out: % Remaining in 120 min
readout_name: remaining at 2 h, 3.13 μM (%)
I only need the number, in %, no unit after it.

Lookup: Given the compound COc1ccc2nc(COc3ccccc3-c3nc4ccccc4s3)c(COc3ccccc3-c3nc4ccccc4s3)nc2c1 , what is its reported remaining at 2 h, 3.13 μM?
Found: 59

* * *

protocol_summary: Buffer stability (LC-MS/MS)
Type: physicochemical
condition_parameters: pH 7.4 buffer, 6.25 μM; read-out: % Remaining in 120 min
readout_name: remaining at 2 h, 6.25 μM (%)
I only need the number, in %, no unit after it.

Lookup: Given the compound COc1ccc2nc(COc3ccccc3-c3nc4ccccc4s3)c(COc3ccccc3-c3nc4ccccc4s3)nc2c1 , what is its reported remaining at 2 h, 6.25 μM?
Found: 68

* * *

protocol_summary: Buffer solubility (LC-MS/MS)
Type: physicochemical
condition_parameters: aqueous buffer, kinetic from dmso stock; pH 7.4 buffer, 2 h incubation
readout_name: solubility at 2 h

Lookup: Given the molecule COc1ccc2nc(COc3ccccc3-c3nc4ccccc4s3)c(COc3ccccc3-c3nc4ccccc4s3)nc2c1 , what is its reported solubility at 2 h?
Found: ≤ 25 µM

* * *

protocol_summary: Buffer stability (LC-MS/MS)
Type: physicochemical
condition_parameters: pH 7.4 buffer, 50.00 μM; read-out: % Remaining in 120 min
readout_name: remaining at 2 h, 50 μM

Lookup: Given the compound COc1ccc2nc(COc3ccccc3-c3nc4ccccc4s3)c(COc3ccccc3-c3nc4ccccc4s3)nc2c1 [Compound 7g] , what is its reported remaining at 2 h, 50 μM?
Found: 110%

* * *

protocol_summary: Buffer stability (LC-MS/MS)
Type: physicochemical
condition_parameters: pH 7.4 buffer, 12.50 μM; read-out: % Remaining in 120 min
Procedure: LC-MS/MS methods were developed for compound 7g to quantify the drug concentration and in vitro study (i.e. buffer solubility, buffer stability, metabolic stability, and permeability) in a systemic manner (Table 4). […] For the data analysis, % accuracy of compound 7g was calculated and it was soluble up to 25 μM (Fig. 3, eqn (7) ^†). The in vitro solubility and stability of 7g were evaluated in pH 7.4 buffer. […]
readout_name: remaining at 2 h, 12.5 μM
Show the value, then the unit it is measured in.

Lookup: Given the compound COc1ccc2nc(COc3ccccc3-c3nc4ccccc4s3)c(COc3ccccc3-c3nc4ccccc4s3)nc2c1 , what is its reported remaining at 2 h, 12.5 μM?
Found: 81%

* * *

protocol_summary: Metabolic stability in human liver microsomes
Assay type: in vitro ADME
condition_parameters: human, liver microsomes, HLM set 1
readout_name: half-life at 0.5 μM (min)
I only need the number, in min, no unit after it.

Lookup: Given the compound COc1ccc2nc(COc3ccccc3-c3nc4ccccc4s3)c(COc3ccccc3-c3nc4ccccc4s3)nc2c1 , what is its reported half-life at 0.5 μM?
Found: 49.3

* * *

Could you please report measured selectivity ratio for the items listed next?
protocol_summary: MTT cytotoxicity assay, Caco-2
Assay type: cell-based, human
condition_parameters: human, Caco-2, ratio of IC50 for HEK-293 to IC50 for Caco-2; read-out: SF (selectivity factor) Caco-2
Kindly provide the number alone.

Lookup: Given the compound c1ccc(-c2nc3ccccc3s2)c(OCc2nc3ccccc3nc2COc2ccccc2-c2nc3ccccc3s2)c1 , what is its reported selectivity ratio?
Found: 1.71

Lookup: Given the compound Clc1ccc2nc(COc3ccccc3-c3nc4ccccc4s3)c(COc3ccccc3-c3nc4ccccc4s3)nc2c1 , what is its reported selectivity ratio?
Found: 2.13

Lookup: Given the compound Brc1ccc2nc(COc3ccccc3-c3nc4ccccc4s3)c(COc3ccccc3-c3nc4ccccc4s3)nc2c1 , what is its reported selectivity ratio?
Found: 1.28
